# assay.name: Apparent permeability across apical to basolateral side in RRCK cells at 1 uM after 2 hrs by LC/MS-MS analysis
# Type: ADME, cell-based, Canis lupus familiaris, MDCKII-LE
# condition.label: dog, MDCK
# key: entry, value: Papp A→B at 2 h, 1 µM
measure: Papp A→B at 2 h, 1 µM (×10⁻⁶ cm/s)

# mol, measure, quantitative.readout
records = [
    ("O=c1cc(OCc2cccc(Cl)c2)nc2n1[C@H](Cc1ccccc1)COC2", "Papp A→B at 2 h, 1 µM", 4),
    ("Cc1cccc(COc2cc(=O)n3c(n2)COC[C@H]3Cc2ccccc2)n1", "Papp A→B at 2 h, 1 µM", 22),
    ("O=c1cc(OCc2cccc(Cl)c2)nc2n1CCCC2", "Papp A→B at 2 h, 1 µM", 26),
    ("O=c1cc(OCc2cccc(Cl)c2)nc2n1CCOC2", "Papp A→B at 2 h, 1 µM", 31),
    ("O=c1cc(OCc2ccccn2)nc2n1[C@H](Cc1ccccc1)COC2", "Papp A→B at 2 h, 1 µM", 28),
    ("Cc1csc(COc2cc(=O)n3c(n2)COC[C@H]3Cc2ccccc2)n1", "Papp A→B at 2 h, 1 µM", 26),
    ("O=c1cc(OCc2cccc(Cl)c2)nc2ccccn12", "Papp A→B at 2 h, 1 µM", 16),
    ("O=c1cc(OCCC2CC2)nc2n1[C@H](Cc1ccccc1)COC2", "Papp A→B at 2 h, 1 µM", 22),
    ("O=c1cc(SCc2ccccn2)nc2ccccn12", "Papp A→B at 2 h, 1 µM", 26),
    ("CC(C)(C)C[C@@H]1COCc2nc(OCc3cccc(C#N)c3)cc(=O)n21", "Papp A→B at 2 h, 1 µM", 25),
    ("O=c1cc(OCc2cccc(Cl)c2)nc2n1[C@@H](Cc1ccccc1)COC2", "Papp A→B at 2 h, 1 µM", 4),
]
